targetEntity: SNAP protein tags (Homo sapiens, UniProt P16455, A127T/A154D/C150Q/C62A/E30R/G131K/G132T/G153L/K125A/K32I/L33F/M134L/N157G/Q115S/Q116H/R128A/R135S/S151G/S152D/S159E)
assayComment: Fluorescence activation of probe after incubation with corresponding protein tag (SNAP)
Assay type: biochemical
assayConditions: probe 5 μM, protein tag 10 μM, 37° C., 1 hr
experimentalReadout: Quantum yield of probe bound to protein tag
Give bare numbers.

These solved cases illustrate the format of a correct answer.
N#C/C(=C\c1ccc2c(c1)SCCN2CCOC(=O)NCc1ccc(COc2nc(N)nc3[nH]cnc23)cc1)C(=O)O ... 0.27
CN(CCOC(=O)NCc1ccc(COc2nc(N)nc3[nH]cnc23)cc1)c1ccc(-c2ccc(/C=C(\C#N)c3nc4ccccc4s3)s2)s1 ... 0.31
CN(CCOC(=O)NCc1ccc(COc2nc(N)nc3[nH]cnc23)cc1)c1ccc(C#C/C=C(\C#N)c2nc3ccccc3o2)cc1 ... 0.27
CN(C)c1ccc(/C=C(\C#N)C(=O)NCc2ccc(COc3nc(N)nc4[nH]cnc34)cc2)cc1 [Reference Probe 100, reference compound] ... 0.011
N#C/C(=C\c1cc2c3c(c1)CCCN3CCC2)C(=O)NCc1ccc(COc2nc(N)nc3[nH]cnc23)cc1 [Reference Probe BG-CCVJ, reference compound] ... 0.02

# batch size: 5; output Quantum yield of probe bound to protein tag per entry
1. CN(CCOC(=O)NCc1ccc(COc2cc(Cl)nc(N)n2)cc1)c1ccc(/C=C(\C#N)c2nc3ccccc3s2)cc1
2. CN(CCOC(=O)NCc1ccc(COc2cc(Cl)nc(N)n2)cc1)c1ccc2cc(/C=C(\C#N)C(=O)OC(C)(C)C)sc2c1
3. CC1=N/C(=C/c2cc3ccc(N(C)CCOC(=O)NCc4ccc(COc5nc(N)nc6[nH]cnc56)cc4)cc3s2)C(=O)N1C
4. CN(CCOC(=O)NCc1ccc(COc2nc(N)nc3[nH]cnc23)cc1)c1ccc2nc(/C=C(\C#N)C(=O)O)sc2c1
5. CN(CCOC(=O)NCc1ccc(COc2nc(N)nc3[nH]cnc23)cc1)c1ccc(/C=C(\C#N)c2nc3ccccc3s2)cc1

## Result
0.37
0.55
0.31
0.27
0.27

# batch size: 3; output Quantum yield of probe bound to protein tag per entry
1. CN(CCOC(=O)NCc1ccc(COc2cc(Cl)nc(N)n2)cc1)c1ccc(/C=C(\C#N)C(=O)OC(C)(C)C)cc1
2. CN(CCOC(=O)NCc1ccc(COc2nc(N)nc3[nH]cnc23)cc1)c1ccc2nc(/C=C(\C#N)c3nc4ccccc4s3)oc2c1
3. COCCNC(=O)/C(C#N)=C/c1cc2cc3sc(N(C)CCOC(=O)NCc4ccc(COc5nc(N)nc6[nH]cnc56)cc4)cc3cc2s1

## Result
1: 0.35; 2: 0.26; 3: 0.67

# batch size: 2; output Quantum yield of probe bound to protein tag per entry
1. CN(CCOC(=O)NCc1ccc(COc2nc(N)nc3[nH]cnc23)cc1)c1ccc2nc(/C=C(\C#N)c3nc4ccccc4o3)sc2c1
2. CN(CCOC(=O)NCc1ccc(COc2nc(N)nc3[nH]cnc23)cc1)c1ccc2cc(/C=C(\C#N)c3nc4ccccc4o3)sc2c1

## Result
1: 0.17; 2: 0.41

====

assayComment: Fluorescence of free probe prior to binding to a protein tag
Assay type: physicochemical
Could you please report measured Quantum yield of free probe for the items listed next?

CN(CCOC(=O)NCc1ccc(COc2cc(Cl)nc(N)n2)cc1)c1ccc(/C=C(\C#N)c2nc3ccccc3o2)cc1 ... <0.001

# batch size: 6; output Quantum yield of free probe per entry
1. CC1=CC(C)(C)N(CCOC(=O)NCc2ccc(COc3nc(N)nc4[nH]cnc34)cc2)c2ccc(/C=C(\C#N)c3nc4ccccc4s3)cc21
2. CN(CCO)c1ccc(/C=C(\C#N)C(=O)NCc2ccc(COc3nc(N)nc4[nH]cnc34)cc2)cc1 [Reference Probe 102, reference compound]
3. CN(CCOC(=O)NCc1ccc(COc2nc(N)nc3[nH]cnc23)cc1)c1cc2sc3cc(/C=C(\C#N)c4nc5ccccc5o4)sc3c2s1
4. CN(CCOC(=O)NCc1ccc(COc2nc(N)nc3[nH]cnc23)cc1)c1ccc(-c2ccc(/C=C(\C#N)C(=O)O)s2)s1
5. CN(CCOC(=O)NCc1ccc(COc2nc(N)nc3[nH]cnc23)cc1)c1ccc(C#C/C=C(\C#N)c2nc3ccccc3s2)cc1
6. CN(CCOC(=O)NCc1ccc(COc2cc(Cl)nc(N)n2)cc1)c1ccc2nc(/C=C(\C#N)C(=O)OC(C)(C)C)oc2c1

## Result
["<0.001", "<0.001", 0.0012, "<0.001", "<0.001", "<0.001"]

====

assayComment: Fluorescence of free probe prior to binding to a protein tag
Format: physicochemical
Could you please report measured Quantum yield of free probe for the items listed next?

CN1C(=O)/C(=C\c2nc3ccc(N(C)CCOC(=O)NCc4ccc(COc5nc(N)nc6[nH]cnc56)cc4)cc3o2)N=C1c1ccccc1 ... <0.001
COCCNC(=O)/C(C#N)=C/c1cc2cc3sc(N(C)CCOC(=O)NCc4ccc(COc5nccc(N)n5)cc4)cc3cc2s1 ... 0.001
CN(CCOC(=O)NCc1ccc(COc2nc(N)nc3[nH]cnc23)cc1)c1ccc2cc(/C=C(\C#N)C(=O)OC(C)(C)C)sc2c1 [probe 40] ... 0.001
CC1=CC(C)(C)N(CCOC(=O)NCc2ccc(COc3nc(N)nc4[nH]cnc34)cc2)c2ccc(/C=C(\C#N)c3nc4ccccc4o3)cc21 ... <0.001
CN(CCO)c1ccc2cc(/C=C(\C#N)C(=O)NCc3ccc(COc4nc(N)nc5[nH]cnc45)cc3)sc2c1 [Reference Probe 112, reference compound] ... <0.001

Query molecule follows.
Lab book: Quantum yield of free probe of CN(CCOC(=O)NCc1ccc(COc2nc(N)nc3[nH]cnc23)cc1)c1ccc(-c2ccc(/C=C(\C#N)C(=O)OC(C)(C)C)s2)cc1 noted as <0.001

====

assayComment: Viscosity responsiveness: fluorescence emission spectra of probes in glycerol and methanol
Assay type: physicochemical
assayConditions: excited at maximum excitation wavelength of each probe
experimentalReadout: Emission wavelength (nm)
One number for each entry, in nm.

CN(CCOC(=O)NCc1ccc(COc2nc(N)nc3[nH]cnc23)cc1)c1ccc(/C=C(\C#N)C(=O)OC(C)(C)C)cc1 ... 480

# batch size: 5; output Emission wavelength per entry
1. CN(CCOC(=O)NCc1ccc(COc2nccc(N)n2)cc1)c1ccc(-c2ccc(/C=C(\C#N)c3nc4ccccc4s3)s2)s1
2. CN1C(=O)/C(=C/c2ccc(N(C)CCOC(=O)NCc3ccc(COc4cc(Cl)nc(N)n4)cc3)cc2)N=C1/C=C/c1ccccc1
3. CN(CCOC(=O)NCc1ccc(COc2nc(N)nc3[nH]cnc23)cc1)c1ccc(C#C/C=C(\C#N)C(=O)O)cc1
4. CN(CCO)c1ccc(C#C/C=C(\C#N)C(=O)NCc2ccc(COc3nc(N)nc4[nH]cnc34)cc2)cc1 [Reference Probe 110, reference compound]
5. COCCNC(=O)/C(C#N)=C/c1ccc(-c2ccc(N(C)CCOC(=O)NCc3ccc(COc4nc(N)nc5[nH]cnc45)cc3)s2)s1

## Result
[681, 580, 566, 567, 672]

====

targetEntity: SNAP protein tags (Homo sapiens, UniProt P16455, A127T/A154D/C150Q/C62A/E30R/G131K/G132T/G153L/K125A/K32I/L33F/M134L/N157G/Q115S/Q116H/R128A/R135S/S151G/S152D/S159E)
Sequence (P16455 1-182 E30R/K32I/L33F/C62A/Q115S/Q116H/K125A/A127T/R128A/G131K/G132T/M134L/R135S/C150Q/S151G/S152D/G153L/A154D/N157G/S159E): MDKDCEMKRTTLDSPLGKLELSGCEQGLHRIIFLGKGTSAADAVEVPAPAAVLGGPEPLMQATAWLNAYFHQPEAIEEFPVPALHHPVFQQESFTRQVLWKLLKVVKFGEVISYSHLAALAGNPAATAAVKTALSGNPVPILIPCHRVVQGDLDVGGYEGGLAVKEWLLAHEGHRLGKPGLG
assayComment: Fluorescence activation of probe after incubation with corresponding protein tag (SNAP)
Type: biochemical
assayConditions: probe 5 μM, protein tag 10 μM, 37° C., 1 hr
experimentalReadout: Fluorescence activation multiple

CN(CCOC(=O)NCc1ccc(COc2nc(N)nc3[nH]cnc23)cc1)c1cc2sc(/C=C(\C#N)C(=O)OC(C)(C)C)cc2s1 [probe 21] ... 560

# batch size: 5; output Fluorescence activation multiple per entry
1. CC(C)(C)OC(=O)/C(C#N)=C/c1cc2ccc(N(CCOC(=O)NCCCS(=O)(=O)O)CCOC(=O)NCc3ccc(COc4nc(N)nc5[nH]cnc45)cc3)cc2s1 [probe 39]
2. CN(CCOC(=O)NCc1ccc(COc2cc(Cl)nc(N)n2)cc1)c1ccc(/C=C(\C#N)c2nc3ccccc3o2)cc1 [probe 5]
3. CN(CCOC(=O)NCc1ccc(COc2cc(Cl)nc(N)n2)cc1)c1ccc2nc(/C=C(\C#N)C(=O)OC(C)(C)C)oc2c1 [probe 44]
4. CN(CCOC(=O)NCc1ccc(COc2cc(Cl)nc(N)n2)cc1)c1ccc2nc(/C=C(\C#N)C(=O)OC(C)(C)C)sc2c1 [probe 52]
5. CN1C(=O)/C(=C\c2nc3ccc(N(C)CCOC(=O)NCc4ccc(COc5nc(N)nc6[nH]cnc56)cc4)cc3o2)N=C1c1ccccc1 [probe 50]

## Result
1. 335
2. 1174
3. 1586
4. 435
5. 416
